System: HEK-293T
PROTOCOL_SUMMARY: Multiplex assay against HEK293T
Assay type: toxicity, cell-based
CONDITION_CONTEXT: human, 48 h, 10 µM, compound concentration 10 uM, replicate 1
VALUE_TYPE: Population Mitotic Cells (%)
Expressed in %, but write only the number.

> print(dat)
                                   compound  quantity.unit  reported.measurement
1  C[C@@H]1C[C@H]2[C@@H]3CCC4=CC(=O)C=C[C@]4(C)[C@@]3(F)[C@@H](O)C[C@]2(C)[C@@]1(O)C(=O)CO [DEXAMETHASONE]              %                    75
2  COc1cc(NC(=O)CCN2CCC(OC(=O)Nc3ccccc3-c3ccccc3)CC2)c(Cl)cc1CNC[C@H](O)c1ccc(O)c2[nH]c(=O)ccc12 [BATEFENTEROL]              %                     0

We now examine a further compound.
Recorded result, CCCN1CCC[C@@H]2Cc3n[nH]cc3C[C@H]21.Cl [QUINPIROLE HYDROCHLORIDE] , Population Mitotic Cells (%): 59
